Molecular target: HLA-DR DRB4*0101 (human)
Experiment: competition with 125I-labeled reference peptide, purified HLA
pIC50: −log10 of the molar value.
ENDPOINT NAME: pIC50

BINDER | EXPERIMENTAL VALUE
RREVHIYYLEKANKI (modifications not checked) [Flu.PA.127] | 8.30
